The reader will find reported Ki values listed item by item below.
# SYSTEM_UNDER_TEST: UniProt Q92847
# Sequence (Q92847 whole entry, species assumed): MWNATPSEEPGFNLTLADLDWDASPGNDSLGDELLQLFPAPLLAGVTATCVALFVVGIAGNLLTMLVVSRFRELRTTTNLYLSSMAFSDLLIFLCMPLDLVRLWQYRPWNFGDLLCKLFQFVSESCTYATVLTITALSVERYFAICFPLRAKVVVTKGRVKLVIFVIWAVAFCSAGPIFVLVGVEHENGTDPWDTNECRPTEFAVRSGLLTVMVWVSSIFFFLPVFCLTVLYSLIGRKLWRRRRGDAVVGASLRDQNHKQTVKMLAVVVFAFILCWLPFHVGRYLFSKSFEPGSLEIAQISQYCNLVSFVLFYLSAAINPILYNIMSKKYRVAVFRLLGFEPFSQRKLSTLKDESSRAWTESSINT
# ASSAY_NOTES: GHS-R antagonist activity (Ki) in a cell based assay
OUTCOME_MEASURE: Ki

- COMPOUND: "CCN(CC)CCCS(=O)(=O)N[C@H](CCc1ccccc1)c1nc(-c2ccc3nccn3c2)n[nH]1 [Compound 134]"
  SYSTEM_UNDER_TEST: "UniProt Q92847"
  OBSERVED_MEASUREMENT: "100 to 500 nM"
- COMPOUND: "CCN(CC)CCCS(=O)(=O)N[C@H](CCc1ccccc1)c1nc(-c2cn(C)cn2)n[nH]1 [Compound 131]"
  SYSTEM_UNDER_TEST: "UniProt Q92847"
  OBSERVED_MEASUREMENT: "< 100 nM"
- COMPOUND: "CCN(CC)CCCS(=O)(=O)N[C@H](CCc1ccccc1)c1nc(Cc2ccccc2C)no1 [Compound 68]"
  SYSTEM_UNDER_TEST: "UniProt Q92847"
  OBSERVED_MEASUREMENT: "< 100 nM"
- COMPOUND: "CCN(CC)CCCS(=O)(=O)N[C@H](CCc1ccccc1)c1nc(Cc2c[nH]c3ccccc23)n[nH]1 [Compound 127]"
  SYSTEM_UNDER_TEST: "UniProt Q92847"
  OBSERVED_MEASUREMENT: "< 100 nM"
- COMPOUND: "CCN(CC)CCCS(=O)(=O)N[C@H](CCc1ccccc1)c1nc(-c2ccc(C)cc2)no1 [Compound 71]"
  SYSTEM_UNDER_TEST: "UniProt Q92847"
  OBSERVED_MEASUREMENT: "< 100 nM"
- COMPOUND: "CCN(CC)CCS(=O)(=O)N[C@H](CCc1ccccc1)c1nc(-c2cccnc2)no1 [Compound 43]"
  SYSTEM_UNDER_TEST: "UniProt Q92847"
  OBSERVED_MEASUREMENT: "100 to 500 nM"
- COMPOUND: "CCN(CC)CCS(=O)(=O)N[C@H](COCc1ccccc1)c1nc(-c2ccccc2OC)no1 [Compound 49]"
  SYSTEM_UNDER_TEST: "UniProt Q92847"
  OBSERVED_MEASUREMENT: "≥ 1000 nM"
- COMPOUND: "CCN(CC)CCCS(=O)(=O)N[C@H](CCc1ccccc1)c1nc(-c2ccc(F)cc2F)n[nH]1 [Compound 96]"
  SYSTEM_UNDER_TEST: "UniProt Q92847"
  OBSERVED_MEASUREMENT: "< 100 nM"

Every entry's value here was drawn from patent US7829589B2.
